Data provenance: patent CN112759647A

EC50 by entry:
- target.of.assay: 人PD-L1 on 293T-h-PDL1 cells (HEK293 stably expressing PD-L1) (human) (UniProt Q9NZQ7)
- test.name: FACS, hybridoma supernatant on 293T-h-PDL1 cells
endpoint.label: EC50 (µg/mL)

1. 鼠抗体8A2 (antibody, from another filing, V domains shown) VH: QVQLKQSGPGLVAPSQSLSITCTVSGFSLTGYGVNWVRQPPGKGLEWLGKIWGDGITDYNSALKSRLSISKDNSKSQVFLKMNSLQTDDTARYYCARDVMDYWGQGTSVTVSS VL: QIVLTQSPAIMSASPGEKVTMTCSASSSISYMHWYQQKPGTSPKRWIYDTSKLASGVPARFSGSESGTSYSLTISSMEAEDAATYYCHHRSPYPTFGAGTKLELK ... 0.336
2. 鼠抗体22B10 (antibody, from another filing, V domains shown) VH: QVQLKQSGAELVKPGASVELSCTASGFNIEDTYLHWVNQRPEQGLEWIGRIDPANGNTYYDPKFQGKATITTDTSSNTAYLQLSRLTSEDTAVYYCARGLRLPGFPYWGQGTLVTVSA VL: DIQMTQTPSSLSASLGDRVTISCRASQDISNYLSWYQQKPDGTVKLLIYYTSILHSGVPSRFSGSGSGTDYSLAISNLDQEDIATYFCQQGNTLPWTFGGGTKLEIKR ... 0.517
